Assay: PK in fasted male mice, prodrug and released riluzole (IV, PO)
Conditions: mouse, in vivo, PO 5 mg/kg
endpointLabel: Cmax (ng/mL)
API: value field is a number in ng/mL; no unit string.

-- ask What Cmax value was documented for this compound, CN(CC(=O)Nc1nc2ccc(OC(F)(F)F)cc2s1)C(=O)CNC(=O)CN [Example 204] ?
-- reply 4.71

---

Test: Rat pharmacokinetic studies of prodrug and released riluzole (IV or oral)
Type: in vivo, Sprague-Dawley rats
Details: rat, plasma; fasted male Sprague Dawley rats, IV, prodrug dose 2.8 mg/Kg; read-out: Compound of the disclosure Cl (converted)
Each entry below lists one item and its recorded clearance value.
API: value field is a number in mL/min/kg; no unit string.

CNCC(=O)NC(C)(C)C(=O)Nc1nc2ccc(OC(F)(F)F)cc2s1 :: 5.75
CN(CC(=O)Nc1nc2ccc(OC(F)(F)F)cc2s1)C(=O)C1(CN)CC1 :: 27.2
CC(C)NCC(=O)N(C)CC(=O)Nc1nc2ccc(OC(F)(F)F)cc2s1 :: 81.2
CC(C)(CN)C(=O)N1CCC[C@H]1C(=O)Nc1nc2ccc(OC(F)(F)F)cc2s1 :: 10.7
CN(CC(=O)Nc1nc2ccc(OC(F)(F)F)cc2s1)C(=O)CNC(=O)CN :: 220
CN(CC(=O)Nc1nc2ccc(OC(F)(F)F)cc2s1)C(=O)CNC1CCNCC1 :: 23
CNCC(=O)N(C)CC(=O)Nc1nc2ccc(OC(F)(F)F)cc2s1 :: 66.3
CN(CC(=O)Nc1nc2ccc(OC(F)(F)F)cc2s1)C(=O)C(C)(C)CN :: 18.8
CCNCC(=O)N(C)CC(=O)Nc1nc2ccc(OC(F)(F)F)cc2s1 :: 59
CN(CC(=O)Nc1nc2ccc(OC(F)(F)F)cc2s1)C(=O)C1(CN)CCCC1 :: 19

-- ask What clearance value was documented for this compound, `CN(CC(=O)Nc1nc2ccc(OC(F)(F)F)cc2s1)C(=O)CNC(C)(C)C` ?
-- reply 27.8

-- ask What clearance value was documented for this compound, `CCNCC(=O)N1CCC[C@@H]1C(=O)Nc1nc2ccc(OC(F)(F)F)cc2s1` ?
-- reply 9

-- ask What clearance value was documented for this compound, `NCC1(C(=O)N2CCC[C@@H]2C(=O)Nc2nc3ccc(OC(F)(F)F)cc3s2)CCCCC1` ?
-- reply 22.3

-- ask What clearance value was documented for this compound, `CN(CC(=O)Nc1nc2ccc(OC(F)(F)F)cc2s1)C(=O)CNC1COC1` ?
-- reply 14.2

-- ask What clearance value was documented for this compound, `CC(C)NCC(=O)NC(C)(C)C(=O)Nc1nc2ccc(OC(F)(F)F)cc2s1` ?
-- reply 11.5

-- ask What clearance value was documented for this compound, `NCC(=O)NC1(C(=O)Nc2nc3ccc(OC(F)(F)F)cc3s2)CCC1` ?
-- reply 71.3

-- ask What clearance value was documented for this compound, `CN(CC(=O)Nc1nc2ccc(OC(F)(F)F)cc2s1)C(=O)C1(CN)CCCCC1` ?
-- reply 36.3

---

Experiment: Rat pharmacokinetic studies of prodrug and released riluzole (IV or oral)
Format: in vivo, Sprague-Dawley rats
Conditions: rat, plasma; fasted male Sprague Dawley rats, IV, prodrug dose 1.4 mg/Kg; read-out: Compound of the disclosure Vss
endpointLabel: Vd (L/kg)
API: value field is a number in L/kg; no unit string.

-- ask What Vd value was documented for this compound, `CN(CC(=O)Nc1nc2ccc(OC(F)(F)F)cc2s1)C(=O)CNC1CNC1` ?
-- reply 6.21
